- assay_info: Pharmacokinetic study of dalbavancin components in rat plasma after IV dalbavancin hydrochloride (UHPLC-MS/MS)
- condition_label: both, Sprague-Dawley, rat, iv, 40 mg/kg, MRT(0–t), D1, single-dose group, SD rats, IV 40 mg/kg dalbavancin hydrochloride, mean ± SD, n = 10
endpoint: MRT
Answer shape: numeric part, then the unit.

Reference set (3 entries):
| compound | MRT |
| --- | --- |
| CC(C)CCCCCCCCC(=O)N[C@H]1[C@H](Oc2c3cc4cc2Oc2ccc(cc2Cl)[C@@H](O)[C@@H]2NC(=O)[C@H](NC(=O)[C@@H]4NC(=O)[C@H]4NC(=O)[C@@H](Cc5ccc(cc5)O3)NC(=O)[C@H](N(C)C)c3ccc(O)c(c3)Oc3cc(O)c(Cl)c4c3)c3ccc(O)c(c3)-c3c(O[C@H]4O[C@H](CO)[C@@H](O)[C@H](O)[C@@H]4O)cc(O)cc3[C@@H](C(=O)NCCCN(C)C)NC2=O)O[C@H](C(=O)O)[C@@H](O)[C@@H]1O [B2] | 16.2 h |
| CN[C@H]1C(=O)N[C@@H]2Cc3ccc(cc3)Oc3cc4cc(c3O[C@@H]3O[C@H](C(=O)O)[C@@H](O)[C@H](O)[C@H]3NC(=O)CCCCCCCC(C)C)Oc3ccc(cc3Cl)[C@@H](O)[C@@H]3NC(=O)[C@H](NC(=O)[C@@H]4NC(=O)[C@@H](NC2=O)c2cc(cc(O)c2Cl)Oc2cc1ccc2O)c1ccc(O)c(c1)-c1c(O[C@H]2O[C@H](CO)[C@@H](O)[C@H](O)[C@@H]2O)cc(O)cc1[C@@H](C(=O)NCCCN(C)C)NC3=O [A0] | 5.6 h |
| CCCCCCCCCCCC(=O)N[C@H]1[C@H](Oc2c3cc4cc2Oc2ccc(cc2Cl)[C@@H](O)[C@@H]2NC(=O)[C@H](NC(=O)[C@@H]4NC(=O)[C@H]4NC(=O)[C@@H](Cc5ccc(cc5)O3)NC(=O)[C@H](NC)c3ccc(O)c(c3)Oc3cc(O)c(Cl)c4c3)c3ccc(O)c(c3)-c3c(O[C@H]4O[C@H](CO)[C@@H](O)[C@H](O)[C@@H]4O)cc(O)cc3[C@@H](C(=O)NCCCN(C)C)NC2=O)O[C@H](C(=O)O)[C@@H](O)[C@@H]1O [B1] | 32.3 h |

Request: Sample CCCCCCCCCCC(=O)N[C@H]1[C@H](Oc2c3cc4cc2Oc2ccc(cc2Cl)[C@@H](O)[C@@H]2NC(=O)[C@H](NC(=O)[C@@H]4NC(=O)[C@H]4NC(=O)[C@@H](Cc5ccc(cc5)O3)NC(=O)[C@H](NC)c3ccc(O)c(c3)Oc3cc(O)c(Cl)c4c3)c3ccc(O)c(c3)-c3c(O[C@H]4O[C@H](CO)[C@@H](O)[C@H](O)[C@@H]4O)cc(O)cc3[C@@H](C(=O)NCCCN(C)C)NC2=O)O[C@H](C(=O)O)[C@@H](O)[C@@H]1O [A1] — what was its MRT?
Result: 17 h

* * *

- assay_info: Pharmacokinetic study of dalbavancin components in rat plasma after IV dalbavancin hydrochloride (UHPLC-MS/MS)
- condition_label: both, Sprague-Dawley, rat, iv, 40 mg/kg, Vz (apparent volume of distribution), D28, multiple-dose group, daily for 28 days, SD rats, IV 40 mg/kg dalbavancin hydrochloride, mean ± SD, n = 10
endpoint: Vd (L/kg)
Give a bare numeral; the unit L/kg is implied.

Recorded results for 3 compounds are shown here.
| smiles_repr | Vd / L/kg |
| --- | --- |
| CN[C@H]1C(=O)N[C@@H]2Cc3ccc(cc3)Oc3cc4cc(c3O[C@@H]3O[C@H](C(=O)O)[C@@H](O)[C@H](O)[C@H]3NC(=O)CCCCCCCC(C)C)Oc3ccc(cc3Cl)[C@@H](O)[C@@H]3NC(=O)[C@H](NC(=O)[C@@H]4NC(=O)[C@@H](NC2=O)c2cc(cc(O)c2Cl)Oc2cc1ccc2O)c1ccc(O)c(c1)-c1c(O[C@H]2O[C@H](CO)[C@@H](O)[C@H](O)[C@@H]2O)cc(O)cc1[C@@H](C(=O)NCCCN(C)C)NC3=O | 196 |
| CCCCCCCCCCCC(=O)N[C@H]1[C@H](Oc2c3cc4cc2Oc2ccc(cc2Cl)[C@@H](O)[C@@H]2NC(=O)[C@H](NC(=O)[C@@H]4NC(=O)[C@H]4NC(=O)[C@@H](Cc5ccc(cc5)O3)NC(=O)[C@H](NC)c3ccc(O)c(c3)Oc3cc(O)c(Cl)c4c3)c3ccc(O)c(c3)-c3c(O[C@H]4O[C@H](CO)[C@@H](O)[C@H](O)[C@@H]4O)cc(O)cc3[C@@H](C(=O)NCCCN(C)C)NC2=O)O[C@H](C(=O)O)[C@@H](O)[C@@H]1O | 1.2 |
| CCCCCCCCCCC(=O)N[C@H]1[C@H](Oc2c3cc4cc2Oc2ccc(cc2Cl)[C@@H](O)[C@@H]2NC(=O)[C@H](NC(=O)[C@@H]4NC(=O)[C@H]4NC(=O)[C@@H](Cc5ccc(cc5)O3)NC(=O)[C@H](NC)c3ccc(O)c(c3)Oc3cc(O)c(Cl)c4c3)c3ccc(O)c(c3)-c3c(O[C@H]4O[C@H](CO)[C@@H](O)[C@H](O)[C@@H]4O)cc(O)cc3[C@@H](C(=O)NCCCN(C)C)NC2=O)O[C@H](C(=O)O)[C@@H](O)[C@@H]1O | 10.1 |

Next, consider the following compound.
Request: // lookup Vd for CC(C)CCCCCCCCC(=O)N[C@H]1[C@H](Oc2c3cc4cc2Oc2ccc(cc2Cl)[C@@H](O)[C@@H]2NC(=O)[C@H](NC(=O)[C@@H]4NC(=O)[C@H]4NC(=O)[C@@H](Cc5ccc(cc5)O3)NC(=O)[C@H](N(C)C)c3ccc(O)c(c3)Oc3cc(O)c(Cl)c4c3)c3ccc(O)c(c3)-c3c(O[C@H]4O[C@H](CO)[C@@H](O)[C@H](O)[C@@H]4O)cc(O)cc3[C@@H](C(=O)NCCCN(C)C)NC2=O)O[C@H](C(=O)O)[C@@H](O)[C@@H]1O
Result: 13.5

* * *

- assay_info: Pharmacokinetic study of dalbavancin components in rat plasma after IV dalbavancin hydrochloride (UHPLC-MS/MS)
- condition_label: both, Sprague-Dawley, rat, iv, 40 mg/kg, T1/2, D28, multiple-dose group, daily for 28 days, SD rats, IV 40 mg/kg dalbavancin hydrochloride, mean ± SD, n = 10
endpoint: half-life (h)
Quick reminder: number only, in h, skip the unit.

Sample answers from the record:
| compound | endpoint | measured_number |
| --- | --- | --- |
| CCCCCCCCCCC(=O)N[C@H]1[C@H](Oc2c3cc4cc2Oc2ccc(cc2Cl)[C@@H](O)[C@@H]2NC(=O)[C@H](NC(=O)[C@@H]4NC(=O)[C@H]4NC(=O)[C@@H](Cc5ccc(cc5)O3)NC(=O)[C@H](NC)c3ccc(O)c(c3)Oc3cc(O)c(Cl)c4c3)c3ccc(O)c(c3)-c3c(O[C@H]4O[C@H](CO)[C@@H](O)[C@H](O)[C@@H]4O)cc(O)cc3[C@@H](C(=O)NCCCN(C)C)NC2=O)O[C@H](C(=O)O)[C@@H](O)[C@@H]1O [A1] | half-life | 110 |
| CC(C)CCCCCCCCC(=O)N[C@H]1[C@H](Oc2c3cc4cc2Oc2ccc(cc2Cl)[C@@H](O)[C@@H]2NC(=O)[C@H](NC(=O)[C@@H]4NC(=O)[C@H]4NC(=O)[C@@H](Cc5ccc(cc5)O3)NC(=O)[C@H](N(C)C)c3ccc(O)c(c3)Oc3cc(O)c(Cl)c4c3)c3ccc(O)c(c3)-c3c(O[C@H]4O[C@H](CO)[C@@H](O)[C@H](O)[C@@H]4O)cc(O)cc3[C@@H](C(=O)NCCCN(C)C)NC2=O)O[C@H](C(=O)O)[C@@H](O)[C@@H]1O [B2] | half-life | 153 |

Consider the record given below.
Request: Which measured half-life value corresponds to CCCCCCCCCCCC(=O)N[C@H]1[C@H](Oc2c3cc4cc2Oc2ccc(cc2Cl)[C@@H](O)[C@@H]2NC(=O)[C@H](NC(=O)[C@@H]4NC(=O)[C@H]4NC(=O)[C@@H](Cc5ccc(cc5)O3)NC(=O)[C@H](NC)c3ccc(O)c(c3)Oc3cc(O)c(Cl)c4c3)c3ccc(O)c(c3)-c3c(O[C@H]4O[C@H](CO)[C@@H](O)[C@H](O)[C@@H]4O)cc(O)cc3[C@@H](C(=O)NCCCN(C)C)NC2=O)O[C@H](C(=O)O)[C@@H](O)[C@@H]1O [B1] ?
Result: 87

* * *

half-life overview
- assay_info: Pharmacokinetic study of dalbavancin components in rat plasma after IV dalbavancin hydrochloride (UHPLC-MS/MS)
- condition_label: both, Sprague-Dawley, rat, iv, 40 mg/kg, T1/2, D1, single-dose group, SD rats, IV 40 mg/kg dalbavancin hydrochloride, mean ± SD, n = 10
# unit: h | format: bare number

Previously resolved entries follow.
| smiles_repr | endpoint | measured_number |
| --- | --- | --- |
| CC(C)CCCCCCCCC(=O)N[C@H]1[C@H](Oc2c3cc4cc2Oc2ccc(cc2Cl)[C@@H](O)[C@@H]2NC(=O)[C@H](NC(=O)[C@@H]4NC(=O)[C@H]4NC(=O)[C@@H](Cc5ccc(cc5)O3)NC(=O)[C@H](N(C)C)c3ccc(O)c(c3)Oc3cc(O)c(Cl)c4c3)c3ccc(O)c(c3)-c3c(O[C@H]4O[C@H](CO)[C@@H](O)[C@H](O)[C@@H]4O)cc(O)cc3[C@@H](C(=O)NCCCN(C)C)NC2=O)O[C@H](C(=O)O)[C@@H](O)[C@@H]1O | half-life | 87.3 |
| CN[C@H]1C(=O)N[C@@H]2Cc3ccc(cc3)Oc3cc4cc(c3O[C@@H]3O[C@H](C(=O)O)[C@@H](O)[C@H](O)[C@H]3NC(=O)CCCCCCCC(C)C)Oc3ccc(cc3Cl)[C@@H](O)[C@@H]3NC(=O)[C@H](NC(=O)[C@@H]4NC(=O)[C@@H](NC2=O)c2cc(cc(O)c2Cl)Oc2cc1ccc2O)c1ccc(O)c(c1)-c1c(O[C@H]2O[C@H](CO)[C@@H](O)[C@H](O)[C@@H]2O)cc(O)cc1[C@@H](C(=O)NCCCN(C)C)NC3=O | half-life | 6.5 |

Now consider a different molecule.
Request: Query: half-life; subject: CCCCCCCCCCC(=O)N[C@H]1[C@H](Oc2c3cc4cc2Oc2ccc(cc2Cl)[C@@H](O)[C@@H]2NC(=O)[C@H](NC(=O)[C@@H]4NC(=O)[C@H]4NC(=O)[C@@H](Cc5ccc(cc5)O3)NC(=O)[C@H](NC)c3ccc(O)c(c3)Oc3cc(O)c(Cl)c4c3)c3ccc(O)c(c3)-c3c(O[C@H]4O[C@H](CO)[C@@H](O)[C@H](O)[C@@H]4O)cc(O)cc3[C@@H](C(=O)NCCCN(C)C)NC2=O)O[C@H](C(=O)O)[C@@H](O)[C@@H]1O
Result: 27.5
